target_system: Polyunsaturated fatty acid 5-lipoxygenase (Homo sapiens) (UniProt P09917)
Sequence (P09917 whole entry): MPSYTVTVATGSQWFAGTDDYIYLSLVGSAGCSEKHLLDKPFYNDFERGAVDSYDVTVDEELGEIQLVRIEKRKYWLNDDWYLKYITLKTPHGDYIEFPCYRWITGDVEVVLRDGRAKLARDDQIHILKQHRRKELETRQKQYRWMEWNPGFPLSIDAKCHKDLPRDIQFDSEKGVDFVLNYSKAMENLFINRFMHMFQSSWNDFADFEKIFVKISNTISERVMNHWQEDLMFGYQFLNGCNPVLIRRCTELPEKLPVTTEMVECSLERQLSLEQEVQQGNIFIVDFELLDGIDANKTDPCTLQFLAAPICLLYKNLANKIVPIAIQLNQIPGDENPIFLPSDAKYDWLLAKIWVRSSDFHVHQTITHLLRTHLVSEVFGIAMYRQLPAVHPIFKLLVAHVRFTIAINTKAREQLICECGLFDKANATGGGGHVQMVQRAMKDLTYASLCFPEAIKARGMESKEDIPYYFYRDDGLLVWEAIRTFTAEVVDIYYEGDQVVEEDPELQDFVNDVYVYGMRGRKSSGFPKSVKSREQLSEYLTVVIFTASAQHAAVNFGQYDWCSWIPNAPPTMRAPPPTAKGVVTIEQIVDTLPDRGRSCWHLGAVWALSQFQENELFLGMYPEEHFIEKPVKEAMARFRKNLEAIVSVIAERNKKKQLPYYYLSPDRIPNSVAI
procedure_details: Ex vivo inhibition of 5-lipoxygenase was determined by the measurement of A-23187-stimulated LTB4 production in dog blood at 1.0h, following intravenous administration at the dose of 1.0 mg/kg
Type: functional, organism-based
Design: dose 1 mg/kg
assay_conditions: Canis lupus familiaris, target entry is the homologue from another species
readout_kind: inhibition (%)

NC(=O)N(O)CC1COc2ccc(Oc3ccc(F)cc3)cc2O1 (stereo unspecified)	92
NC(=O)N(O)C[C@@H]1COc2ccc(Oc3ccc(F)cc3)cc2O1	100
CNC(=O)N(O)CC1COc2ccc(Oc3ccccc3)cc2O1 (stereo unspecified)	74
NC(=O)N(O)CC1COc2ccc(Oc3ccccc3)cc2O1 (stereo unspecified)	100
CCCCNC(=O)N(O)CC1COc2ccccc2O1 (stereo unspecified)	45
CC(c1cc2ccccc2s1)N(O)C(N)=O (stereo unspecified)	87
